Answer each item with its documented Ki.
# assayedSystem: Cannabinoid receptor (Rattus norvegicus, UniProt Q9QZN9+P20272)
# assay: Binding affinity towards cannabinoid receptor using [3H]CP-55940 as radioligand in rat brain membrane
# Type: cell membranes
# unit: nM | format: bare number

Input: What Ki appears in the records for this compound with Cannabinoid receptor (Rattus norvegicus, UniProt Q9QZN9+P20272)? CCCCCCC(C)(C)/C=C\C/C=C\C/C=C\C/C=C\CCCC(=O)NCCO
Output: 1.9

Input: Field: Ki (Cannabinoid receptor (Rattus norvegicus, UniProt Q9QZN9+P20272)). Entry: CCCCC/C=C\C/C=C\C/C=C\C/C=C\CCCC(=O)NC[C@H](C)O
Output: 57

Input: # query: Ki | item CCCCCCC(C)(C)/C=C\C/C=C\C/C=C\C/C=C\CCCC(=O)NCCC | system: Cannabinoid receptor (Rattus norvegicus, UniProt Q9QZN9+P20272)
Output: 1.5

Input: # query: Ki | item CCCCC/C=C\C/C=C\C/C=C\C/C=C\CCCC(=O)NCCOC | system: Cannabinoid receptor (Rattus norvegicus, UniProt Q9QZN9+P20272)
Output: 44

Input: Give recorded Ki with Cannabinoid receptor (Rattus norvegicus, UniProt Q9QZN9+P20272) for the following compound: CCCCC/C=C\C/C=C\C/C=C\C/C=C\CCCC(=O)NCCC
Output: 2.6

Input: Checklist item: Ki tested on Cannabinoid receptor (Rattus norvegicus, UniProt Q9QZN9+P20272), entry CCCCCCC(C)(C)/C=C\C/C=C\C/C=C\C/C=C\CCCC(=O)N[C@H](C)CO , value?
Output: 1.7

Input: Give Cannabinoid receptor (Rattus norvegicus, UniProt Q9QZN9+P20272) Ki for CCCCCCC(C)(C)/C=C\C/C=C\C/C=C\C/C=C\CCCC(=O)NCCOC
Output: 3.9

Input: # get_value(readout= Ki, system= Cannabinoid receptor (Rattus norvegicus, UniProt Q9QZN9+P20272)) for CCCCCCC(C)(C)/C=C\C/C=C\C/C=C\C/C=C\CCCC(=O)N[C@@H](C)CO
Output: 5

###

# assayedSystem: Cannabinoid receptor (Rattus norvegicus, UniProt Q9QZN9+P20272)
# assay: Binding affinity towards cannabinoid receptor using [3H]SR-141,716A as radioligand in rat brain membrane
# Format: cell membranes
measureName: Ki

Input: Return reported Ki; argument: CCCCCCC(C)(C)/C=C\C/C=C\C/C=C\C/C=C\CCCC(=O)NCCO
Output: 153 nM

Input: Recorded Ki for CCCCCCC(C)(C)/C=C\C/C=C\C/C=C\C/C=C\CCCC(=O)NCCOC , please?
Output: 54 nM

Input: # query: Ki of entry CCCCC/C=C\C/C=C\C/C=C\C/C=C\CCCC(=O)NCCOC
Output: 466 nM

Input: # Ki lookup, item CCCCCCC(C)(C)/C=C\C/C=C\C/C=C\C/C=C\CCCC(=O)N[C@H](C)CO
Output: 220 nM

Input: // lookup Ki for CCCCCCC(C)(C)/C=C\C/C=C\C/C=C\C/C=C\CCCC(=O)NCCC
Output: 31 nM

Input: Requested field: Ki. Item: CCCCC/C=C\C/C=C\C/C=C\C/C=C\CCCC(=O)NCCC
Output: 238 nM

Input: For the molecule CCCCCCC(C)(C)/C=C\C/C=C\C/C=C\C/C=C\CCCC(=O)N[C@@H](C)CO , what Ki is on record?
Output: 161 nM

###

For each record, write down the corresponding ED50.
# Organism: Mus musculus
# assay: Inhibition of spontaneous activity(SA) in mice was determined
# Format: functional
Write the numeric value and follow it with the unit.

Input: What does the record list as ED50 for CCCCCCC(C)(C)/C=C\C/C=C\C/C=C\C/C=C\CCCC(=O)NCCC ?
Output: 1.2 mg/kg

Input: Request the reported ED50 associated with CCCCCCC(C)(C)/C=C\C/C=C\C/C=C\C/C=C\CCCC(=O)N[C@@H](C)CO
Output: 2.6 mg/kg

Input: Query (compound): CCCCCCC(C)(C)/C=C\C/C=C\C/C=C\C/C=C\CCCC(=O)NCCOC ; field requested: ED50
Output: 4 mg/kg

Input: # input compound: CCCCCCC(C)(C)/C=C\C/C=C\C/C=C\C/C=C\CCCC(=O)NCCO ; wanted: its ED50
Output: 1.5 mg/kg

Input: Could you tell me which ED50 is on file for CCCCCCC(C)(C)/C=C\C/C=C\C/C=C\C/C=C\CCCC(=O)N[C@H](C)CO ?
Output: 1.1 mg/kg

Reference for the values: ChEMBL document CHEMBL1130399
